Biological target: GltB (periplasmic glucose-binding protein) (Pseudomonas aeruginosa, UniProt Q9HZ48)
Construct: 6His-GltB, the N-terminal 6His-tagged GltB
Assay: ITC ([…] °C, one-site model); supported by concentration-dependent thermal shift
measure_name: pKd
pKd here is simply -log10 of the concentration when that concentration is written in mol/L.

Please state recorded pKd (tested on GltB (periplasmic glucose-binding protein) (Pseudomonas aeruginosa, UniProt Q9HZ48)) of OC[C@H]1OC(O)[C@H](O)[C@@H](O)[C@@H]1O (stereo partly shown) 5.86
